Exercise: state measured pKi for each of the compounds provided.
assayed.target: Human recombinant MMP-13 (Homo sapiens)
Construct: made in house; host or cells: baculovirus / insect cells
procedure.summary: In vitro MMP inhibition analysis (fluorogenic peptide substrate cleavage), Ki
Assay type: biochemical
reported.conditions: Table 2
Answers are plain numbers, as −log10 of the molar value.

Here is how some compounds turned out for pKi.
> print(dat)
                           substance.smiles  quantitative.readout
1  CC(C)c1ccc(-c2ccc(S(=O)(=O)C3(C(=O)NO)CCOCC3)cc2)cc1                  9.28
2  O=C(NO)C1(S(=O)(=O)c2ccc(-c3ccc(OCC(F)(F)C(F)F)c(C(F)(F)F)c3)cc2)CCOCC1                  7.83
3  O=C(NO)C1(S(=O)(=O)c2ccc(-c3ccccc3CO)cc2)CCOCC1                  5.97
4  COCCN1CCC(C(=O)NO)(S(=O)(=O)c2ccc(-c3cnc(CCC(F)(F)F)cn3)cc2)CC1                  9.18
5  CCN1CCC(C(=O)NO)(S(=O)(=O)c2ccc(-c3ccc(-c4csc(C)n4)cc3)cc2)CC1                  9.77
6  COCCN1CCC(C(=O)NO)(S(=O)(=O)c2ccc(-c3cnc(OCCC4CCCC4)cn3)cc2)CC1                  9.84

For the 6 compounds below, give their pKi values.
1. COC/C(Cl)=C/c1cnc(-c2ccc(S(=O)(=O)C3(C(=O)NO)CCOCC3)cc2)cn1
2. O=C(NO)C1(S(=O)(=O)c2ccc(-c3nc4ccccc4o3)cc2)CCOCC1
3. CCCCOc1ccc(-c2ccc(S(=O)(=O)C3(C(=O)NO)CCOCC3)cc2)cc1
4. O=C(NCC1CC1)c1ccc2cc(-c3ccc(S(=O)(=O)C4(C(=O)NO)CCOCC4)cc3)ccc2c1
5. O=C(NCC1CCCCC1)c1cnc(-c2ccc(S(=O)(=O)C3(C(=O)NO)CCOCC3)cc2)cn1
6. O=C(NO)C1(S(=O)(=O)c2ccc(-c3ccc(CCC(F)(F)C(F)(F)F)cc3)cc2)CCS(=O)(=O)CC1

Completion:
9.08
8.77
10.31
9.59
9.55
9.13

For the 4 compounds below, give their pKi values.
1. O=C(NO)C1(S(=O)(=O)c2ccc(-c3ccc(OC(F)(F)F)cc3)cc2)CCOCC1
2. CCN1CCC(C(=O)NO)(S(=O)(=O)c2ccc(-c3ccc(OCCCCO)cc3)cc2)CC1
3. O=C(c1ccc2cc(-c3ccc(S(=O)(=O)C4(C(=O)NO)CCOCC4)cc3)ccc2c1)N1CCOCC1
4. O=C(NO)C1(S(=O)(=O)c2ccc(-c3cnc(OCCC4CC4)cn3)cc2)CCOCC1

Completion:
1: 10.17; 2: 10.92; 3: 9.21; 4: 10.52

---

assayed.target: Human recombinant MMP-1 (Homo sapiens, UniProt P03956)
Construct: made in house; host or cells: MMP-1-transfected HT-1080 cells (spent media)
Sequence (P03956 100-469): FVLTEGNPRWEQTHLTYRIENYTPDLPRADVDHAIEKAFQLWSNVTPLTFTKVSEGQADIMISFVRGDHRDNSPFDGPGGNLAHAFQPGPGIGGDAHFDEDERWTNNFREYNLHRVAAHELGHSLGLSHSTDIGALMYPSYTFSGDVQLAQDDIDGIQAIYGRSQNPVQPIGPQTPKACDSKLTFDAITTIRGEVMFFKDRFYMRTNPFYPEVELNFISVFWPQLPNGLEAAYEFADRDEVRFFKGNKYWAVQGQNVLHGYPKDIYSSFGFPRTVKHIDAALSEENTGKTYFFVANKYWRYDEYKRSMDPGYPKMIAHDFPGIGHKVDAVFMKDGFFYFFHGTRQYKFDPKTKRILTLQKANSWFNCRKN
procedure.summary: In vitro MMP inhibition analysis (fluorogenic peptide substrate cleavage), Ki
Format: biochemical
reported.conditions: Table 2
Exercise: state measured pKi for each of the compounds provided.
One number for each entry, as −log10 of the molar value.

> print(dat)
                           substance.smiles  result.type  quantitative.readout
1  COC(=O)c1ccc2cc(-c3ccc(S(=O)(=O)C4(C(=O)NO)CCOCC4)cc3)ccc2c1          pKi                  6.33
2  COCCOc1ccc(-c2ccc(S(=O)(=O)C3(C(=O)NO)CCN(C4CC4)CC3)cc2)cc1          pKi                  5.54

Prompt: // pKi lookup, key: O=C(NO)C1(S(=O)(=O)c2ccc(-c3ccc(CCC4CCCCC4)cn3)cc2)CCOCC1
Completion: 5.36

---

assayed.target: Human recombinant MMP-2 (Homo sapiens, UniProt P08253)
Construct: made in house; host or cells: MMP-2-transfected p2AHT2 cells
Sequence (P08253 110-660): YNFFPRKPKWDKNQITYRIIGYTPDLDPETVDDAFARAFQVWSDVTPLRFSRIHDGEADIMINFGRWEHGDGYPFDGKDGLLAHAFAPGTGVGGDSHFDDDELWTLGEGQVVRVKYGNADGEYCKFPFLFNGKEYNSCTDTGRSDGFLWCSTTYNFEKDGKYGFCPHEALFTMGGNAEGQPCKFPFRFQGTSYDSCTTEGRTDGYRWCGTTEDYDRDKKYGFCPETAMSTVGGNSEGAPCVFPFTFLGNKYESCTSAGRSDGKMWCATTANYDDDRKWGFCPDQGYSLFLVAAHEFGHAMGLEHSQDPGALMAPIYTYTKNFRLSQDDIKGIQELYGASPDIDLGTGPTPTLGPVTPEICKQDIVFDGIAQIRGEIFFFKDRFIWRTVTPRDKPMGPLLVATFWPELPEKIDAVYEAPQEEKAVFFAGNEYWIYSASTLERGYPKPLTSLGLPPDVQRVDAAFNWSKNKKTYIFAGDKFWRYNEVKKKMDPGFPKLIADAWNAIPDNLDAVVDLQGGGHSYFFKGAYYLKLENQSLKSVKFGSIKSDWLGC
procedure.summary: In vitro MMP inhibition analysis (fluorogenic peptide substrate cleavage), Ki
Format: biochemical
reported.conditions: Table 2
Exam item: assign criterion met to entries whose Ki is below 0.2 nM and criterion not met to entries at or above 0.2 nM. Note that a value of exactly 0.2 nM receives criterion not met.

Solved entries (count: 3):
> print(dat)
                                   molecule     category.label
1  O=C(CCc1nccs1)c1ccc(-c2ccc(S(=O)(=O)C3(C(=O)NO)CCOCC3)cc2)cc1 [Example 211]  criterion not met
2  O=C(NO)C1(S(=O)(=O)c2ccc(-c3cnc(OCCCC(F)(F)F)cn3)cc2)CCOCC1 [Example 88]      criterion met
3  COCC#Cc1cnc(-c2ccc(S(=O)(=O)C3(C(=O)NO)CCOCC3)cc2)cn1 [Example 164]  criterion not met

Prompt: # strict comparison: is reported Ki < 0.2 nM? input = CCCCc1ccc(-c2ccc(S(=O)(=O)C3(C(=O)NO)CCOCC3)cc2)nc1 [Example 89]
Completion: criterion met

Prompt: Please give the result for CCN1CCC(C(=O)NO)(S(=O)(=O)c2ccc(-c3ccc(-c4ccncc4)cc3)cc2)CC1 [Example 136] too.
Completion: criterion met

Prompt: Please give the result for O=C(NO)C1(S(=O)(=O)c2ccc(-c3cscc3-c3ccc(F)cc3)cc2)CCOCC1 [Example 132] too.
Completion: criterion not met

Prompt: Please give the result for O=CN1CCC(C(=O)NO)(S(=O)(=O)c2ccc(-c3ccc(CCCC(F)(F)F)cn3)cc2)CC1 [Example 159] too.
Completion: criterion met

Prompt: Please give the result for CCN1CCC(C(=O)NO)(S(=O)(=O)c2ccc(-c3ccc(-c4csc(C)n4)cc3)cc2)CC1 [Example 155] too.
Completion: criterion not met

---

assayed.target: Human recombinant MMP-13 (Homo sapiens)
Construct: made in house; host or cells: baculovirus / insect cells
procedure.summary: In vitro MMP inhibition analysis (fluorogenic peptide substrate cleavage), Ki
Assay type: biochemical
reported.conditions: Table 2
result.type: Ki (pM)
Answers are plain numbers, in pM.

Here is how some compounds turned out for Ki.
> print(dat)
                                   compound  result.type  quantitative.readout
1  CCCCc1ccc(-c2ccc(S(=O)(=O)C3(C(=O)NO)CCN(CC)CC3)cc2)cn1 [Example 139]           Ki                  5220
2  O=C(NO)C1(S(=O)(=O)c2ccc(-c3cnc(NCC4CC4)cn3)cc2)CCOCC1 [Example 128]           Ki                  3400
3  O=C(NO)C1(S(=O)(=O)c2ccc(-c3ccc(-c4ccccc4)cc3)cc2)CCN(C2CC2)CC1 [Example 153]           Ki                   150
4  O=C(NO)C1(S(=O)(=O)c2ccc(-c3cnc(OCC(F)(F)C(F)(F)F)cn3)cc2)CCN(C2CC2)CC1 [Example 156]           Ki                   310
5  CCCCNC(=O)c1cnc(-c2ccc(S(=O)(=O)C3(C(=O)NO)CCOCC3)cc2)cn1 [Example 184]           Ki                   210
6  CN(C)C(=O)c1ccc2cc(-c3ccc(S(=O)(=O)C4(C(=O)NO)CCOCC4)cc3)ccc2c1 [Example 221]           Ki                   736

For the 3 compounds below, give their Ki values.
1. O=C(CCc1nccs1)c1ccc(-c2ccc(S(=O)(=O)C3(C(=O)NO)CCOCC3)cc2)cc1 [Example 211]
2. O=C(NO)C1(S(=O)(=O)c2ccc(-c3ccc(C(F)(F)F)cc3F)cc2)CCOCC1 [Example 96]
3. O=C(NCC(F)(F)C(F)(F)F)c1cnc(-c2ccc(S(=O)(=O)C3(C(=O)NO)CCOCC3)cc2)cn1 [Example 192]

Completion:
56
416
220

For the 6 compounds below, give their Ki values.
1. CC[C@@H](C)NC(=O)c1ccc(-c2ccc(S(=O)(=O)C3(C(=O)NO)CCOCC3)cc2)nc1 [Example 207]
2. CCc1csc(Nc2ccc(-c3ccc(S(=O)(=O)C4(C(=O)NO)CCOCC4)cc3)cc2)n1 [Example 124]
3. O=C(NO)C1(S(=O)(=O)c2ccc(-c3cnc4ccccc4n3)cc2)CCOCC1 [Example 194]
4. O=C(NO)C1(S(=O)(=O)c2ccc(-c3ccc(OCC(F)(F)C(F)(F)F)cc3)cc2)CCOCC1 [Example 95]
5. O=C(NO)C1(S(=O)(=O)c2ccc(-c3cnc(CCCC(F)(F)F)cn3)cc2)CCN(C2CC2)CC1 [Example 218]
6. O=C(NO)C1(S(=O)(=O)c2ccc(-c3ccc(CCC(F)(F)F)cn3)cc2)CCOCC1 [Example 176]

Completion:
1. 729
2. 3300
3. 319000
4. 155
5. 267
6. 20

For the 4 compounds below, give their Ki values.
1. O=C1c2ccccc2C(=O)N1CCCOc1cccc(-c2ccc(S(=O)(=O)C3(C(=O)NO)CCOCC3)cc2)c1 [Example 196]
2. O=C(NO)C1(S(=O)(=O)c2ccc(-c3ccc(CCC(F)(F)F)cc3)cc2)CCOCC1 [Example 161]
3. CCCCc1nc(-c2ccc(S(=O)(=O)C3(C(=O)NO)CCOCC3)cc2)no1 [Example 105]
4. CC(C)CCNC(=O)c1cnc(-c2ccc(S(=O)(=O)C3(C(=O)NO)CCOCC3)cc2)cn1 [Example 185]

Completion:
13500
70
3670
190

For the 4 compounds below, give their Ki values.
1. CCCCNC(=O)c1ccc(-c2ccc(S(=O)(=O)C3(C(=O)NO)CCOCC3)cc2)nc1 [Example 203]
2. O=C(NO)C1(S(=O)(=O)c2ccc(-c3nc4ccccc4s3)cc2)CCOCC1 [Example 195]
3. CCNc1cnc(-c2ccc(S(=O)(=O)C3(C(=O)NO)CCOCC3)cc2)cn1 [Example 93]
4. O=C(NO)C1(S(=O)(=O)c2ccc(-c3ccc4c(c3)OCO4)cc2)CCOCC1 [Example 188]

Completion:
1. 375
2. 7200
3. 4450
4. 80
